This collection of values is drawn from patent US20070196376A1.

# kon annotations
assayed target: T1, human insulin-like growth factor-II (IGF-II) (human, UniProt P01344 25-91)
T1 construct: also called IGF2; IGF-2
protocol text: Biacore low-resolution screen, mAb captured, IGF-II injected
Write down the numeric answer in M⁻¹ s⁻¹ and omit the unit.

Recorded kon, per entry:
binder	reported result
mAb 7.251.3 (antibody, V domains shown, Fully human XenoMouse hybridoma mAb, lambda light chain (V1-13/JL2); also called ATCC PTA-7422) VH: QVQLQESGPGLVKPSETLSLTCTVSGGSISSYYWSWIRQPPGKGLEWIGYFFYSGYTNYNPSLKSRVTISVDTSKNQFSLKLSSVTAADTAVYYCACITGTTKGGMDVWGQGTTVTVSS VL: QSVLTQPPSVSGAPGQRVTISCTGSSSNIGAGYDVHWYQQLPGTAPKLLIYGNNNRPSGVPDRFSGSKSGTSASLAITGLQADDEADYYCQSFDSSLSGSVFGGGTKLTVLG	3.5e+06
mAb 7.158.2 (antibody, V domains shown, Kappa light chain (L5/JK3); also called 7.158.1; 7_158_1) VH: QLQLQESGPGLVKPSETLSLTCTVSGGSIRSSSYYWGWIRQPPGKGLEWIGGIYYSGSTYYNPSLKSRVTMSVDTSKNQFSLKLSSVTAADTAVYYCARQRGHSSGWWYFDLWGRGTLVTVSS VL: DIQMTQSPSSVSASVGDSVTITCRASQGISSYLAWYQQKPGKAPKLLIYAASSLQSGVPSRFSGNGSGTDFTLTISSLQPEDFATYYCQQANNFPFTFGPGTKVDIKR	3.4e+06

In: For the binder mAb 7.34.1 (antibody, V domains shown, Fully human XenoMouse hybridoma mAb, lambda light chain (V1-13/JL2); also called ATCC PTA-7423) VH: QVQLQESGPGLVKPSETLSLTCTVSGGSISSYYWSWIRQPPGRGLEWIGYFFYSGYTNYNPSLKSRVTMSVDTSKNQFSLKLSSVTAADTAVYYCACITGTTKGGMDVWGQGATVTVSS VL: QSVLTQAPSVSGAPGQRVTISCTGRSSNIGAGYDVHWYQQFPGTAPKLLIYGNSNRPSGVPDRFSGSKSGTSASLAITGLQAEDEADYYCQSYDSSLSGSVFGGGTKLTVLG , what kon is on record?
Out: 3e+06

In: And the next one, mAb 7.159.2 (antibody, V domains shown, Fully human XenoMouse hybridoma mAb, lambda light chain (V1-19/JL2); Sister clones 7.159.1 and 7.159.2 are said to be identical; also called 7.159.1; 7_159_1) VH: QVQLVQSGAEVKKPGASVKVSCKASGYTFTSYDINWVRQATGQGLEWMGWMNPNSGNTGYAQKFQGRVTMTRNTSISTAYMELSSLRSEDTAVYYCARDPYYYYYGMDVWGQGTTVTVSS VL: QSVLTQPPSVSAAPGQKVTISCSGSSSNIENNHVSWYQQLPGTAPKLLIYDNNKRPSGIPDRFSGSKSGTSATLGITGLQTGDEADYYCETWDTSLSAGRVFGGGTKLTVLG ?
Out: 3.5e+06
